Below, each of the binders is paired with its reported pKd value.
Target: T1, Recombinant Human TNF-α/TNFSF1A (human, UniProt P01375 77-233)
T1 construct: Bought reagent (R&D Systems 210-TA); also called hTNF-α; huTNF-α
T1 sequence (P01375 77-233 limits assumed): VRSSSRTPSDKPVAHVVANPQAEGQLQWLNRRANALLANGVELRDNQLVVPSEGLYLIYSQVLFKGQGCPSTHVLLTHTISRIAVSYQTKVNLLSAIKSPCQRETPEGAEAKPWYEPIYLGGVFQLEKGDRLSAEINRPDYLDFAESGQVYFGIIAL
Experiment: SPR (Biacore), antibody captured, TNF-α in solution
Expect pKd as a plain number equal to -log10 of the molar concentration.

The cases that follow already have their pKd on record.
BINDER: AB249 (antibody, V domains shown, also called A3249; hMAK195VH.1b / hMAK195VL.1a) VH: EVQLQESGPGLVKPSETLSLTCTVSGFSLSDYGVNWIRQPPGKGLEWIGMIWGDGSTDYDSTLKSRVTISKDTSKNQFSLKLSSVTAADTAVYYCAREWHHGPVAYWGQGTLVTVSS VL: DIQMTQSPSSLSASVGDRVTITCKASQAVSSAVAWYQQKPGKSPKLLIYWASTRHTGVPSRFSGSGSGTDFTLTISSLQPEDFATYYCQQHYSTPFTFGQGTKLEIK
pKd: 9.81
//
BINDER: AB257 (antibody, V domains shown, also called hMAK195VH.2a / hMAK195VL.1a) VH: EVQLVESGGGLVQPGGSLRLSCAVSGFTLSDYGVNWVRQAPGKGLEWLGMIWGDGSTDYDSTLKSRLTISKDNSKSTIYLQMNSLRAEDTAVYYCAREWHHGPVAYWGQGTLVTVSS VL: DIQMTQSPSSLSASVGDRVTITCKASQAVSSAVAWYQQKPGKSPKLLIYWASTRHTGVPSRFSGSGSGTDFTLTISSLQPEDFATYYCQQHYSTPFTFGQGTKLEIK
pKd: 10.21

Prompt line: Indicate its recorded pKd; the binder in question is AB247 (antibody, V domains shown, also called hMAK195VH.1a / hMAK195VL.2a) VH: EVQLQESGPGLVKPSETLSLTCTVSGFSLSDYGVNWVRQPPGKGLEWLGMIWGDGSTDYDSTLKSRLTISKDNSKSQISLKLSSVTAADTAVYYCAREWHHGPVAYWGQGTLVTVSS VL: EIVMTQSPATLSLSPGERATLSCKASQAVSSAVAWYQQKPGQSPRLLIYWASTRHTGVPARFSGSGSGTDFTLTISSLQPEDFAVYYCQQHYSTPFTFGQGTKLEIK
Response line: 10.00
